- measurement description: Oral bioavailability in Beagle dog at 10 mg/kg
- Format: ADME, organism-based, Canis lupus familiaris
- details: in vivo

>  <structure smiles string>
N=C(N)c1ccc(CNC(=O)[C@@H]2CCCN2C(=O)[C@@H](NCC(=O)O)C(c2ccccc2)c2ccccc2)s1

>  <bioavailability [%]>
43

$$$$

---

# Ki values compiled below
- study system: Tissue-type plasminogen activator (Homo sapiens)
- Sequence (P00750 whole entry): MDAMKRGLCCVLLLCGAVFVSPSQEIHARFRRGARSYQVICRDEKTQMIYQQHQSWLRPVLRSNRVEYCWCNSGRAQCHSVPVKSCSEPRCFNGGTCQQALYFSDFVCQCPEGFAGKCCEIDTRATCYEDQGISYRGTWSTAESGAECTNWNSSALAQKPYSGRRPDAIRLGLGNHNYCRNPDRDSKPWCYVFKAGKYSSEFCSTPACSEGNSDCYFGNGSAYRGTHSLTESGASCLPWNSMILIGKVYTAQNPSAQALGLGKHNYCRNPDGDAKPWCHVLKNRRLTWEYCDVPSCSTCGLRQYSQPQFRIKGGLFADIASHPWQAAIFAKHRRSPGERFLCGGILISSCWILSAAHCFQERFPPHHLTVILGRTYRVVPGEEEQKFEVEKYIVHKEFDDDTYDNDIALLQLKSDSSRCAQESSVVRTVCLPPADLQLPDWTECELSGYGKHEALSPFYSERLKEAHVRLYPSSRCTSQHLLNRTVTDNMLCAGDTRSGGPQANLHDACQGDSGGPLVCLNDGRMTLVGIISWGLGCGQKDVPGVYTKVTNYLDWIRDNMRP

>  <structure smiles string>
N=C(N)c1ccc(CNC(=O)[C@@H]2CCN2C(=O)[C@H](NCC(=O)O)C2CCCCC2)cc1

>  <Ki>
1.51 µM

$$$$
>  <structure smiles string>
N=C(N)c1ccc(CNC(=O)[C@@H]2CCCN2C(=O)[C@@H](NCC(=O)O)C(c2ccccc2)c2ccccc2)s1

>  <Ki>
0.113 µM

$$$$
